Below, each entry is listed alongside its reported VCD %.
Test system: aCD137 cells
measurement_notes: Screen of antioxidants added to feed media in aCD137 fed-batch cell culture
Assay type: cell-based, Chinese Hamster
measurement_parameters: 0.25 mM in feed media M154A1B; day 8 (peak VCD); normalized to control without antioxidant; basal media not supplemented
Report only the number, with the unit % understood.

In the examples that follow, each entry is paired with its recorded VCD %.
O=c1c(O)c(-c2ccc(O)c(O)c2)oc2cc(O)cc(O)c12: 119.28
Oc1ccc(C=Cc2cc(O)cc(O)c2)cc1: 92.24
O=C(/C=C/c1ccc(O)c(O)c1)O[C@@H]1C[C@](O)(C(=O)O)C[C@@H](O)[C@H]1O: 109.35

Read the next record carefully.
Item under review: O=C(/C=C/c1ccc(O)c(O)c1)O[C@H](Cc1ccc(O)c(O)c1)C(=O)O . Reported VCD %?
125.43
